Numbers sourced from ChEMBL document CHEMBL3507680.

# measurementNotes: Human HepG2 cell viability assay in 384 well format
# Assay type: toxicity, cell-based
# Design: dose 125 nL, time 70.5 hour; concentration not given beside the values
# conditionSet: HepG2 cells, read-out: Inhibition
Each entry below carries its recorded cytotoxicity at 70.5 h.
Return type: number; implicit unit %.

>>> df
                                   compound          measuredmetric  numericvalue
0         O=C(NCCc1c[nH]cn1)c1n[nH]c2c1CCC2  cytotoxicity at 70.5 h         -8.54
1  Cc1cc(CN2CC[C@H]3C[C@H](C(=O)N4CCC(C)CC4)O[C@H]3C2)no1  cytotoxicity at 70.5 h         -9.04
2  O=C1CC[C@H]2CN(Cc3cccnc3)CC[C@H]2N1CCc1c[nH]cn1  cytotoxicity at 70.5 h         -1.83
3  CN(Cc1cccc(O)c1)CC1CCCN(CCc2ccc(Cl)cc2)C1 (stereo unspecified)  cytotoxicity at 70.5 h          10.2
4  Cc1ocnc1C(=O)N(C)[C@@H]1CC[C@@H](n2ccnc2C)[C@@H]1O  cytotoxicity at 70.5 h         -7.34
5    CCN1Cc2c(C(=O)NC)ncn2-c2ccccc2S1(=O)=O  cytotoxicity at 70.5 h         -6.74
6              Cc1cnn(-c2cccc(N3CCCC3)n2)c1  cytotoxicity at 70.5 h         -1.27
7  COc1ccccc1N1CCN(Cc2cnc3c(c2)c(C)nn3C)CC1  cytotoxicity at 70.5 h         -11.4
8  O=C(NCC(F)(F)F)C1CSCN1S(=O)(=O)c1ccccc1F (stereo unspecified)  cytotoxicity at 70.5 h            26
9        Cc1nc(C(=O)N2CCCCC2)nn1-c1ccccc1Cl  cytotoxicity at 70.5 h         -7.71

Now look at this one.
stdin: Supply cytotoxicity at 70.5 h value. Item: CN(C)c1ncc(C(=O)N2C[C@H]3C[C@H](Oc4ccccc4)C[C@H]3C2)cn1
stdout: -0.787
